# reported Top (%); entries follow
experimental system: human MC4R (Homo sapiens, UniProt P32245)
Construct: expressed in transfected cells; host or cells: HEK293/MC4R/CRE-GFP
Sequence (P32245 whole entry): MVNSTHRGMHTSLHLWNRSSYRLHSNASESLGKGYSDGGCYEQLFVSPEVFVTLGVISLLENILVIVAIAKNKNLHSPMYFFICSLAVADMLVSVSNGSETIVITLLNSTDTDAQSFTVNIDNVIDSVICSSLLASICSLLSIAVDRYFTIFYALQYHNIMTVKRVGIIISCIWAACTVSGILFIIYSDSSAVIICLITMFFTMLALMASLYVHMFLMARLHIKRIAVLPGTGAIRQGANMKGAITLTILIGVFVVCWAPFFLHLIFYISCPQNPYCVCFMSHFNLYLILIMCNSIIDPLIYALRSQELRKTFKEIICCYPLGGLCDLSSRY
protocol details: cAMP accumulation assay (HTRF), antagonist activity at MC4R
Format: cell-based
recorded conditions: dose-response fit, MC4R
Positions of bridges follow the written chain, without caps; N, C: chain ends. Non-standard residues stand in square brackets, D forms with d. No end group written: not given here. d2Nal = N[C@H](Cc1ccc2ccccc2c1)C(=O)O; Nle = CCCC[C@H](N)C(=O)O
Field format: number, assumed %, no unit text.

The cases that follow already have their Top (%) on record.
substance	Top (%)
LPWRWVP [Peptide C4]	−1.97
Ac-Nle-c(Asp-His-Dnal(2′)-Arg-Trp-Pro-Lys)-Dval-Dpro-NH2 (Ac-[Nle]DH[d2Nal]RWPK[dV][dP]-NH2; lactam 2-8; SMILES CCCC[C@H](NC(C)=O)C(=O)N[C@H]1CC(=O)NCCCC[C@@H](C(=O)N[C@@H](C(=O)N2CCC[C@@H]2C(N)=O)C(C)C)NC(=O)[C@@H]2CCCN2C(=O)[C@H](Cc2c[nH]c3ccccc23)NC(=O)[C@H](CCCNC(=N)N)NC(=O)[C@@H](Cc2ccc3ccccc3c2)NC(=O)[C@H](Cc2c[nH]cn2)NC1=O) [Peptide D2]	18.76
VDPFFRWKVP [Peptide B9]	−0.55
VDPWRWKVP [Peptide C9]	219.95

Moving on to another substance below.
Any idea what its Top (%) is? The substance is VPWRWVP [Peptide C6]
321.26
